Give measured protein stability index for each item. Keep answers brief.
B1: FBXO3 (parent)
chain: DEEERRRRVFDVPIRRRRCSRLF

# Variants of: B1
# ASSAY_METHOD_TEXT: protein stability index of a GFP-peptide fusion (GPS, HEK-293T) (PSI 1-6); higher = more stable;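 note: lentivirally expressed fusions sorted by FACS into six bins by GFP to DsRed ratio, PSI derived from sequencing read proportions per bin multiplied by bin number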
# MEASUREMENT_SETUP: c terminus: native
Give bare numbers.

Take a look at these entries with their results.
DEEERRRRVFDVPIRRRRCSRLL :: 4.08
DEEERPRRVFDVPIRRRRCSRLF :: 3.79
DEEERRRRMFDVPIRRRRCSRLF :: 2.47

Your task in this section: give protein stability index for each listed record.
1. DIEERRRRVFDVPIRRRRCSRLF
2. DEEERRFRVFDVPIRRRRCSRLF
3. DEEERRRHVFDVPIRRRRCSRLF
4. DEEERGRRVFDVPIRRRRCSRLF
5. DMEERRRRVFDVPIRRRRCSRLF

Output:
1. 2.52
2. 2.61
3. 3.1
4. 4.09
5. 1.9

Your task in this section: give protein stability index for each listed record.
1. DEEERRRRVFDVPIRRRVCSRLF
2. DEEERRRRVFDVPIRRRRTSRLF
3. DEEERRRRVFDVPIRRRRCSRHF
4. DEEERRRRIFDVPIRRRRCSRLF
5. CEEERRRRVFDVPIRRRRCSRLF

Output:
1. 1.83
2. 3.63
3. 2.94
4. 2.42
5. 1.58

Your task in this section: give protein stability index for each listed record.
1. DEEERRRRVFDVPIERRRCSRLF
2. DEEERRRRVFDVPIRRRRCVRLF
3. DEEERRRGVFDVPIRRRRCSRLF
4. DEEERRRRVFDVPIRRRPCSRLF
5. DEEERRRRVFDVPIRDRRCSRLF
6. DEEERRRRVFDVPIRRRRCSALF

Output:
1. 2.44
2. 2.06
3. 4.29
4. 1.7
5. 2.22
6. 4.48

Your task in this section: give protein stability index for each listed record.
1. DEEERRRRVFDVPIRRRICSRLF
2. DEEERRRRVFFVPIRRRRCSRLF

Output:
1. 1.34
2. 1.89

Your task in this section: give protein stability index for each listed record.
1. DEEERRRRVFDVPIDRRRCSRLF
2. DEEERKRRVFDVPIRRRRCSRLF
3. DEEERRRRVSDVPIRRRRCSRLF
4. DEEERRRLVFDVPIRRRRCSRLF

Output:
[2.27, 3.35, 4.54, 2.94]

Your task in this section: give protein stability index for each listed record.
1. DEEEMRRRVFDVPIRRRRCSRLF
2. DEEEVRRRVFDVPIRRRRCSRLF
3. DEEERRRRVFDVPIRRIRCSRLF
4. DEEERVRRVFDVPIRRRRCSRLF
5. DEEERQRRVFDVPIRRRRCSRLF
6. DEEERRRRVFDVPIRRRQCSRLF
7. DEEERRRRVFDVPIRRRRCSRIF
8. DEEECRRRVFDVPIRRRRCSRLF

Output:
1: 3.59; 2: 3.25; 3: 1.84; 4: 3.2; 5: 3.79; 6: 1.78; 7: 2.82; 8: 2.57

Your task in this section: give protein stability index for each listed record.
1. DCEERRRRVFDVPIRRRRCSRLF
2. DEEERRRRVFDVEIRRRRCSRLF
3. DEEERRRRVFDCPIRRRRCSRLF
4. DEEERRDRVFDVPIRRRRCSRLF
5. DEEERRRRVFDVPIRRRACSRLF
6. DEEERRRRVFSVPIRRRRCSRLF

Output:
1.71
2.15
1.73
4
1.69
2.75

Your task in this section: give protein stability index for each listed record.
1. DEEERRRFVFDVPIRRRRCSRLF
2. DEEERRRRVFDVPIRRRRCSRLI
3. DEHERRRRVFDVPIRRRRCSRLF

Output:
1. 1.28
2. 1.85
3. 2.18
